Record form. Attribute: pKd. Fill in for each entry.
TGT: T1, monkey Trop2 protein (Sino Biological, #90893-C08H) (monkey, UniProt A0A2K5UE71 27-274)
T1 construct: bought protein; also called monkey Trop2 protein antigen (His tag)
T1 sequence: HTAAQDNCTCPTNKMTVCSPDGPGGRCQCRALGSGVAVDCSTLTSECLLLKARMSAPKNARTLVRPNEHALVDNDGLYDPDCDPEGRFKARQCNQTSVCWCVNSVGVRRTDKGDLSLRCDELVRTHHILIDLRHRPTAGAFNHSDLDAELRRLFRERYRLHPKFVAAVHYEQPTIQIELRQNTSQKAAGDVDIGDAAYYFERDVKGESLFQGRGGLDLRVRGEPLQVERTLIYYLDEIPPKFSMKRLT
METHOD SUMMARY: BLI, Octet RED96, AHC sensor
Answers are plain numbers, as −log10 of the molar value.

Worked cases, answers included:
BINDER	pKd
PR001152 (antibody, human IgG1, kappa, V domains shown, fully human IgG1/kappa; also called antibody No. (15)) VH: QVQLVESGGAVVQPGRSLRLSCAASGFTFSHYGMHWVRQAPGKGLEWVAVIWYDGIKSYYVESVKGRFTISRDNSKNTLYLQMDRLRAEDTAVYYCARDGGFGESNYYGLDVWGQGTTVTVSS VL: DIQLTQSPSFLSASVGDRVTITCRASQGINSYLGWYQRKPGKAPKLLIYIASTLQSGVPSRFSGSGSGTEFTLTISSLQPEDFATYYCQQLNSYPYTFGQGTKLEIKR	8.99
PR001171 (antibody, human IgG1, kappa, V domains shown, fully human IgG1/kappa; also called antibody No. (30)) VH: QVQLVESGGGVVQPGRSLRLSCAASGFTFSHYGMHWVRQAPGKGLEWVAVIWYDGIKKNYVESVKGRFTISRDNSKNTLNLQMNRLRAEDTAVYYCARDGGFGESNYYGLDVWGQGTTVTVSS VL: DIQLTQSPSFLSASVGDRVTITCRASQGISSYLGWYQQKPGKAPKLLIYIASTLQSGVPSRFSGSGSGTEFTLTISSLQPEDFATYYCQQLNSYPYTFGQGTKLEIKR	9.82
PR001142 (antibody, human IgG1, kappa, V domains shown, fully human IgG1/kappa; also called antibody No. (9)) VH: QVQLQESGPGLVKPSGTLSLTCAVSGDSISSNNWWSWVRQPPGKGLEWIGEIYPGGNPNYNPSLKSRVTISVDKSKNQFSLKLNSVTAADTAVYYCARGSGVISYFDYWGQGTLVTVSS VL: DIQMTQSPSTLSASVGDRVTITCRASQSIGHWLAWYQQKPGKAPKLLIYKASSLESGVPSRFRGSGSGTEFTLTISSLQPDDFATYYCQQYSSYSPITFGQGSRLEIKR	9.59

Now examine the next entry.
Field request: pKd | item: PR001156 (antibody, human IgG1, kappa, V domains shown, fully human IgG1/kappa; also called antibody No. (19)) VH: QVQLVESGGGVVQPGRSLRLSCEGSGFTFSHYGMHWVRQAPGKGLEWVAVIWYDGIKKNYVDSLKGRFTISRDNSKNTLYLQMNSLRAEDTAVYYCARDGGFGELNYYGMDVWGQGTTVTVSS VL: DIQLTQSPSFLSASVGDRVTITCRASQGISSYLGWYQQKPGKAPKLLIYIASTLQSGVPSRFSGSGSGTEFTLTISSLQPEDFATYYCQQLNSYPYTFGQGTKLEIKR
9.27
